# Test system: SK-MEL-5
# experimentNotes: NCI tumour cell line growth inhibition, 48 h
The source made the active and inactive calls. No stated cut-off is given here; in the data, active = GI50 up to about 1.1 µM and inactive = higher.
Outcome field: choose from active, inactive

COc1ccc(C2CC(=O)CC(c3ccc(OC)cc3)C23C(=O)NC(=O)NC3=O)cc1 (configuration not stated) | inactive
CC(=O)NC1(NC(C)=O)C2CC(C1Cc1ccccc1)C(C)(C)C2C (configuration not stated) | inactive

-- ask Each compound tested received a call. Report the one for COc1ccc(C(C2=C(O)CC(C)OC2=O)C2=C(O)CC(C)OC2=O)cc1 (configuration not stated) .
-- reply inactive

-- ask Test call for this compound, please: CN(C)c1ccc(/N=N\c2cccc3ncccc23)cc1
-- reply inactive

-- ask Hi, do you know how CC(C)(C)C(=O)/C=C(\OB(F)F)C(C)(C)C came out in this test?
-- reply inactive

-- ask Assay outcome for COc1ccc2c(c1)-c1nn(CCCN(C)C)c3ccc([N+](=O)[O-])c(c13)N2 : what was it?
-- reply active

-- ask Dear all, I need the recorded test outcome for COc1cc(/C=C2\CCC/C(=C\c3ccc(OC(=O)CCCCC4CCSS4)c(OC)c3)C2=O)ccc1OC(=O)CCCCC1CCSS1 (configuration not stated) , thank you.
-- reply inactive

###

Reported GI50 values follow for various molecules
# System: M14
# experimentNotes: NCI tumour cell line growth inhibition, 48 h
Calls of active or inactive are those of the source. Rule as the data show it: active = GI50 up to about 1.1 µM and inactive = higher.

CO/N=C(/C)c1cccc(Nc2nc3ccc(Cl)cc3c3[nH]c4ccccc4c23)c1 | 6.92 µM (inactive)
COC1CCC(OS(C)(=O)=O)C(CO)O1 (stereo unspecified) | > 100 µM (inactive)
Oc1c2c(nc3cc4c(cc13)OCO4)-c1ccccc1CCC2 | 49.3 µM (inactive)
CCN1C(=O)CS/C1=N\NC(=O)CSc1nc2ccccc2c(=O)n1CC | > 100 µM (inactive)
CCOC(=O)c1ccc(-c2cc(C)no2)[nH]1 | > 100 µM (inactive)
CCc1ncc(CO)n1Cc1cccc2ccccc12 | > 100 µM (inactive)
CC(=O)c1sc2c(c1OC(=O)c1ccc(Cl)cc1)c(=O)n(-c1ccccc1)c(=S)n2-c1ccccc1 | 1.18 µM (inactive)
O=c1[nH]c(=O)n([C@@H]2C[C@H](CO)[C@H](O)C2)cc1/C=C/Br | > 100 µM (inactive)
COc1ccc(C2c3c(n(C)c(=O)n(C)c3=O)OC(N(C)C)(N(C)C)C2(F)F)cc1 (stereo unspecified) | > 100 µM (inactive)
CC(C)[C@H](COC(C)(C)C)/N=C/N1CSc2ccccc21 | 36.3 µM (inactive)

-- ask GET /values?readout=GI50&item= CN1C/C(=C\c2ccccc2)C2=NN(C(N)=S)[C@H](c3ccccc3)[C@@H]2C1
-- reply 95.1 µM (inactive)

###

# Tested on: HCT-116
# experimentNotes: NCI tumour cell line growth inhibition, 48 h
Activity calls are given as the source filed them. No stated cut-off is given here; in the data, active = GI50 up to about 1.1 µM and inactive = higher.
Hi! Could you answer with just one of these? active, inactive

C[C@H]1C[C@H]2[C@@H]3CCC4=CC(=O)C=C[C@]4(C)C3=CC[C@]2(C)[C@@]1(O)C(=O)CO | inactive

-- ask # lookup: test call for COc1cccc(OC)c1/C=C1\OC(=O)c2cccc(OC)c21
-- reply inactive

-- ask Lab log entry: CCCCCCCCCCC1OC([C@@H](O)CC[C@H](O)C2CC[C@@H](CCCCCCCC(O)CC3=CC(C)OC3=O)O2)CCC1O (some centres not stated) — outcome as called in the assay?
-- reply active

-- ask Call for entry ClCc1ccc(C2OCCO2)cc1 :
-- reply inactive

-- ask Assay outcome for CCCOCN1COCN/C1=N\C#N : what was it?
-- reply inactive

-- ask Test call for this molecule, please: O=C(/C=C/c1ccc(OCC(=O)N2CCN(c3ccccc3)CC2)cc1)c1ccc(Cl)cc1
-- reply inactive

-- ask Hi team, can someone confirm the assay call for O=CC1OC(=O)c2cc(O)c(O)c(O)c2-c2c(cc(O)c(O)c2O)C(=O)OC1C(O)C(O)CO (configuration not stated) ?
-- reply inactive

###

# Test system: DMS-114
# experimentNotes: NCI tumour cell line growth inhibition, 48 h
The source made the active and inactive calls. Rule as the data show it: active = GI50 up to about 1.1 µM and inactive = higher.
Log the outcome using a class from active, inactive

Answered cases to consult:
CC(=O)OC1CC2OC(Cc3ccccc32)O1 (stereo unspecified) | inactive
N#CC1(C=O)c2ccccc2C=CN1C(=O)c1ccccc1 (stereo unspecified) | inactive
O=C(C=P(c1ccccc1)(c1ccccc1)c1ccccc1)CC(=S)CC(=O)C=P(c1ccccc1)(c1ccccc1)c1ccccc1 | inactive
C=C(C)C1CC=C(C(=O)O)CC1 (stereo unspecified) | inactive
COc1ccccc1/N=N/c1c(-c2ccccc2)nn(C(=O)CC(=O)Nc2cccc(C)c2)c1-c1ccccc1 | inactive
CCC1(CC)C(=O)NC(=S)N=C1N | inactive
O=C1C(Cl)C(c2ccccc2O)N1n1cnc2ccccc2c1=O (stereo unspecified) | inactive
CC(C)c1cccc(C(C)C)c1NC(=S)Nc1ccccc1 | inactive
OCC(O)C(OC1OC(CO)C(O)C(O)C1O)c1nn(-c2ccc(F)cc2)c2nc3cc(Cl)c(Cl)cc3cc12 (stereo unspecified) | inactive
O=c1[nH]c(=O)n([C@@H]2C[C@H](CO)[C@H](O)C2)cc1/C=C/Br | inactive

Consider now this further molecule.
-- ask Record request — test call for NCCNc1ccc(NCCN)c2c1C(=O)c1c(O)ccc(O)c1C2=O
-- reply active

###

# System: SK-OV-3
# experimentNotes: NCI tumour cell line growth inhibition, 48 h
Calls of active or inactive are those of the source. No stated cut-off is given here; in the data, active = GI50 up to about 1.1 µM and inactive = higher.
endpointLabel: GI50

Field: example entries. Status: answers known.
N#CC(c1ccc(Cl)cc1)c1cccc(Cl)n1 (configuration not stated) | 42.1 µM (inactive)
COc1cccc(CC(=O)N2CCN(CCCc3ccccc3)CC2)c1 | > 100 µM (inactive)
O=C1CC(Br)c2c(Br)sc(Br)c21 (configuration not stated) | 28.8 µM (inactive)

-- ask Would you mind telling me what GI50 value was observed for Cc1cc(C)n(C(=CC(=O)C(Cl)Cl)n2nc(C)cc2C)n1 ?
-- reply 23.5 µM (inactive)

-- ask # lookup: GI50 of CC12CCC(=O)C[C@H]1CCC(OC=O)C2Br (some centres not stated)
-- reply > 100 µM (inactive)

-- ask Need GI50, item CCOC(=O)C1(C#N)C2(C#N)C(N)=NC(ON=C(C)C)(ON=C(C)C)C12C#N (configuration not stated)
-- reply > 100 µM (inactive)

-- ask Give its GI50 value. Item: COc1ccc(-c2cc(-c3ccc(Nc4ccnc5cc(Cl)ccc45)cc3)nc(N)c2C#N)cc1
-- reply > 100 µM (inactive)

-- ask For the molecule shown here, COC(=O)C(Cc1nc2ccc(Cl)cc2nc1O)/C(=N/O)C(=O)Nc1cccc(Cl)c1C (configuration not stated) , give the reported GI50.
-- reply > 100 µM (inactive)

-- ask Looking for the measured GI50 of COC(=O)C1=C(C(=O)OC)SC2(S1)C1=C(CCCC1)SC(C(=O)OC)=C2C(=O)OC , can you help?
-- reply 14.9 µM (inactive)

-- ask Consider the molecule shown here: COc1ccc(/C(Cl)=C(\C=O)c2ccc(OC)c(OC)c2)cc1OC What is its recorded GI50?
-- reply > 100 µM (inactive)

-- ask Item COc1cc(OC)c2c(c1)OC(c1cccnc1)C(c1ccccc1)C2=O (configuration not stated) has what recorded GI50?
-- reply > 100 µM (inactive)

-- ask # query: GI50 of entry C/C(=C/C(=O)Nc1ccccc1)Nc1onc(C)c1C
-- reply > 100 µM (inactive)

-- ask Would you kindly share the measured GI50 for C[N+]12CCCCC1C(COc1cccc3cccnc13)CCC2 (configuration not stated) ?
-- reply > 100 µM (inactive)

###

Catalogue of compounds with associated GI50
# Tested on: SK-MEL-2
# experimentNotes: NCI tumour cell line growth inhibition, 48 h
The source made the active and inactive calls. Rule as the data show it: active = GI50 up to about 1.1 µM and inactive = higher.

COc1cc(NC(C)=O)c2[nH]c3c(C)cc(NC(C)=O)c(C)c3c2c1 | > 100 µM (inactive)
Cc1ccccc1NC(=O)C(=O)CC(=O)c1ccc([N+](=O)[O-])cc1 | > 100 µM (inactive)
CC(C)c1cccc(C(C)C)c1NC(=S)Nc1ccccc1 | > 100 µM (inactive)
S=C1Cc2c(-c3ccccc3)cc(-c3ccc(Cl)cc3)nc2-c2ccccc2N1 | 6.85 µM (inactive)
O=C1C(Cl)C(c2ccccc2O)N1n1cnc2ccccc2c1=O (configuration not stated) | > 100 µM (inactive)
CC1(C)OC(=O)N(c2ccccc2)C12C=Cc1cccc([N+](=O)[O-])c1O2 (configuration not stated) | > 100 µM (inactive)

-- ask Quick check: GI50 of COc1ccc(OC)c(C23CCCC(C2)N(C)CC3)c1 (configuration not stated) ?
-- reply 21.8 µM (inactive)

-- ask Value lookup for GI50; key = N#CC(c1ccccc1)c1cccc2ccccc12 (configuration not stated)
-- reply 25.6 µM (inactive)

-- ask Query (compound): CCNC(=O)COc1ccc(Cl)cc1Cl ; field requested: GI50
-- reply > 100 µM (inactive)
